# target entity: human MC3R (human, UniProt P41968 1-323)
# Sequence (P41968 whole entry): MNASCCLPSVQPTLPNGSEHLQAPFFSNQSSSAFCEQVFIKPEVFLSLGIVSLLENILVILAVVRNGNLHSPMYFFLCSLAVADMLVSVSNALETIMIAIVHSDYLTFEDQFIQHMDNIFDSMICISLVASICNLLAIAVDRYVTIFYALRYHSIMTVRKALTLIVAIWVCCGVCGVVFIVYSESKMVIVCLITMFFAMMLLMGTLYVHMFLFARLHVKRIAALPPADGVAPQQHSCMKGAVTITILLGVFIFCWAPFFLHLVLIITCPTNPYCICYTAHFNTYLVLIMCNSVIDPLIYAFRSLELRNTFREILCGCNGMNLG
# experiment: cell-based or functional assay
Positions of bridges follow the written chain, without caps; N, C: chain ends. Non-standard residues stand in square brackets, D forms with d. Cit = NC(=O)NCCC[C@H](N)C(=O)O
outcome measure: cAMP EC50 (µM)
Quick note: give the figure in µM, leave out the unit.

Asked: I'd like to know its cAMP EC50. The binder in question is {CH2CO}-G[Cit][dF]RWC-NH2 (thioether N-6; SMILES N=C(N)NCCC[C@@H]1NC(=O)[C@@H](Cc2ccccc2)NC(=O)[C@H](CCCNC(N)=O)NC(=O)CNC(=O)CSC[C@@H](C(N)=O)NC(=O)[C@H](Cc2c[nH]c3ccccc23)NC1=O) [CTX-1646]
Given back: 2.42

Continuing:
Asked: I'd like to know its cAMP EC50. The binder in question is {CH2CO}-[dA]H[dF]RFC-NH2 (thioether N-6; SMILES C[C@H]1NC(=O)CSC[C@@H](C(N)=O)NC(=O)[C@H](Cc2ccccc2)NC(=O)[C@H](CCCNC(=N)N)NC(=O)[C@@H](Cc2ccccc2)NC(=O)[C@H](Cc2c[nH]cn2)NC1=O) [CTX-1656]
Given back: 2.3
